B1: ZER1 (parent)
chain: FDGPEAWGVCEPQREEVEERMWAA

- Variants of: B1
- TEST_DETAILS: protein stability index of a GFP-peptide fusion (GPS, HEK-293T) (PSI 1-6); higher = more stable;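 note: lentivirally expressed fusions sorted by FACS into six bins by GFP to DsRed ratio, PSI derived from sequencing read proportions per bin multiplied by bin number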
- COND: c terminus: a fixed tail appended
Reported protein stability index is given for each of the following variants.

# VAR, protein stability index
rows = [
    ("W22A", 2.79),
    ("G3V", 1.63),
    ("R14Y", 2.46),
    ("C10G", 4.03),
    ("E15Y", 2.32),
    ("Q13Y", 2.39),
    ("P4Y", 1.95),
    ("F1D", 4.33),
    ("C10W", 2.6),
    ("P12K", 2.9),
    ("E16F", 2.62),
    ("G8A", 1.96),
    ("E5P", 3.42),
    ("M21T", 2.4),
    ("C10V", 2.55),
    ("E15V", 2.63),
    ("A6I", 2.43),
    ("P12H", 3.17),
    ("A24S", 2.7),
    ("E5H", 2.59),
    ("E5I", 2.94),
    ("E5C", 3.73),
    ("F1N", 4.87),
    ("E19Q", 2.55),
    ("M21D", 3.16),
    ("G8M", 1.79),
    ("F1I", 4.69),
    ("A24W", 2.15),
    ("P4R", 2.81),
    ("V9G", 3.25),
    ("M21Y", 2.39),
    ("M21C", 2.46),
    ("W22E", 3.79),
    ("P4Q", 3.25),
    ("R14A", 2.18),
    ("G8P", 4.17),
    ("A24G", 3.03),
    ("E19Y", 1.94),
    ("Q13L", 2.68),
    ("W22M", 2.61),
    ("E19R", 2.35),
    ("M21A", 3.06),
    ("A6E", 4.45),
    ("A24K", 2.78),
    ("W7C", 4.66),
    ("W22T", 3.4),
    ("R20H", 2.55),
    ("E18N", 1.92),
    ("R20S", 2.79),
    ("V9Y", 2.48),
    ("G3E", 1.52),
    ("E16A", 2.33),
    ("E11W", 1.81),
    ("Q13R", 2.21),
    ("A6N", 3.6),
    ("E18M", 1.84),
    ("A23D", 3.41),
    ("R20K", 2.34),
    ("W7A", 4.29),
    ("V9I", 2.09),
    ("V17Y", 2.75),
    ("W22I", 2.63),
    ("E15I", 2.02),
    ("W7G", 4.94),
    ("E5W", 2.54),
    ("A24Y", 2.49),
    ("E15P", 1.46),
    ("F1T", 4.94),
    ("E18R", 2.53),
    ("E5F", 3.67),
    ("A24L", 2.98),
    ("V9E", 4.03),
    ("P4K", 3.02),
    ("V17I", 2.26),
    ("E19M", 2.22),
    ("R20L", 2.55),
    ("E11L", 1.85),
    ("G8E", 4.19),
    ("W7E", 4.54),
    ("R20V", 2.67),
    ("R14L", 1.8),
    ("E18K", 1.57),
    ("V17N", 3.28),
    ("R20W", 2.15),
    ("P12Q", 3.22),
    ("V17A", 2.27),
    ("E5A", 2.82),
    ("Q13G", 2.75),
    ("G8C", 2.33),
    ("G8N", 2.62),
    ("C10F", 3.21),
]
